# test: Plasma pharmacokinetics of REG, M-2 and M-5 in rats after single oral REG with or without ATO (UPLC-MS/MS, non-compartmental analysis)
# Type: in vivo, male Wistar rats
# condition.notes: male, Wistar, rat, plasma, po, 20 mg/kg, IIREG group: single oral REG 20 mg/kg b.w. alone, rat plasma, n = 8; median (quartiles); read-out: Cmax
observable: Cmax (ng/mL)
Provide the reading as a plain figure in ng/mL.

Task: What value of Cmax has been recorded for this entry: CNC(=O)c1cc(Oc2ccc(NC(=O)Nc3ccc(Cl)c(C(F)(F)F)c3)c(F)c2)ccn1 [REG, regorafenib, reference compound]
Output: 1880
